System: Escherichia coli
Test: Antimicrobial activity against Escherichia coli DH5alpha harboring plasmid BC-SK after 24 hrs by broth microdilution method
Assay type: functional
# label = y if MIC < 4 µg/mL else n

Observe how each entry below is paired with its result.
| compound | className |
| --- | --- |
| CO[C@@]1(NC(=O)C(C(=O)O)c2ccsc2)C(=O)N2[C@@H](C(=O)O)C(C)(C)S[C@@H]21 (stereo partly specified) | n |
| CO/N=C(\C(=O)N[C@@H]1C(=O)N2C(C(=O)O)=C(COC(C)=O)CS[C@H]12)c1csc(N)n1 | y |
| CC1(C)S[C@@H]2[C@H](NC(=O)[C@H](N)c3ccccc3)C(=O)N2[C@H]1C(=O)O | y |

Shifting focus to the compound that follows.
A record lists C[C@@H](O)[C@H]1C(=O)N2C(C(=O)O)=C(S[C@@H]3CN[C@H](C(=O)N(C)C)C3)[C@H](C)[C@H]12 . Is its MIC below 4 µg/mL?
y
